This collection of values is drawn from paper PMC10786919.

experiment-description: Experimental LogD (partition coefficient)
measurement-setup: not stated, Partition Coeff LogD
Positions of bridges follow the written chain, without caps; N, C: chain ends. Non-standard residues stand in square brackets, D forms with d. Residues, ends and D or L forms follow the SMILES beside them. Lys(N3) = [N-]=[N+]=NCCCC[C@H](N)C(=O)O; R8 = C=CCCCCCC[C@@](C)(N)C(=O)O; Cba = N[C@@H](CC1CCC1)C(=O)O; S5 = C=CCCC[C@](C)(N)C(=O)O; βAla = NCCC(=O)O
As shown below, each of these compounds has a reported logD value.
Answer using only a numeral; do not append any unit.

In plain terms, CC(=O)N[C@@H](CCCCN=[N+]=[N-])C(=O)NCCC(=O)N[C@@H](CC(C)C)C(=O)N[C@H](C(=O)N[C@@H](Cc1ccccc1)C(=O)N[C@]1(C)CCCCCCC=CCCC[C@@](C)(C(=O)N[C@@H](CO)C(=O)N[C@@H](C)C(=O)N[C@@H](C)C(N)=O)NC(=O)[C@H](CC2CCC2)NC(=O)[C@H](CCC(N)=O)NC(=O)[C@H](C)NC(=O)[C@H](C)NC(=O)[C@H](Cc2ccc(O)cc2)NC(=O)[C@H](CCC(=O)O)NC1=O)[C@@H](C)O [MP-893, AZIDE-ATSP-7041(W7A)] has a documented logD of 2.88

In plain terms, CC(=O)N[C@@H](CC(C)C)C(=O)N[C@H](C(=O)N[C@@H](Cc1ccccc1)C(=O)N[C@]1(C)CCCCCCC=CCCC[C@@](C)(C(=O)N[C@@H](CO)C(=O)N[C@@H](C)C(=O)N[C@@H](C)C(N)=O)NC(=O)[C@H](CC2CCC2)NC(=O)[C@H](CC(C)C)NC(=O)[C@H](CCC(N)=O)NC(=O)[C@H](Cc2c[nH]c3ccccc23)NC(=O)[C@H](C)NC(=O)[C@H](CCC(=O)O)NC1=O)[C@@H](C)O [MP-363] (Ac-LTF[R8]EAWQL[Cba][S5]SAA-NH2; staple 4-11) has a documented logD of 2.85

In plain terms, CC(=O)N[C@@H](CC(C)C)C(=O)N[C@H](C(=O)N[C@@H](Cc1ccccc1)C(=O)NC(C)(C)C(=O)N[C@H](CCC(=O)O)C(=O)N[C@@H](Cc1ccc(O)cc1)C(=O)N[C@@H](Cc1c[nH]c2ccccc12)C(=O)N[C@@H](CCC(N)=O)C(=O)N[C@@H](CC(C)C)C(=O)N[C@@H](CC1CCC1)C(=O)NC(C)(C)C(=O)N[C@@H](CO)C(=O)N[C@@H](C)C(=O)N[C@@H](C)C(N)=O)[C@@H](C)O has a documented logD of 2.12

In plain terms, CC(=O)N[C@@H](CCCCN=[N+]=[N-])C(=O)NCCC(=O)N[C@@H](CC(C)C)C(=O)N[C@H](C(=O)N[C@@H](Cc1ccccc1)C(=O)N[C@]1(C)CCCCCCC=CCCC[C@@](C)(C(=O)NCC(=O)NCC(=O)NCC(=O)NCC(=O)NCC(=O)NCC(N)=O)NC(=O)[C@H](CC2CCC2)NC(=O)[C@H](CCC(N)=O)NC(=O)[C@H](C)NC(=O)[C@H](Cc2c[nH]c3ccccc23)NC(=O)[C@H](Cc2ccc(O)cc2)NC(=O)[C@H](CCC(=O)O)NC1=O)[C@@H](C)O [MP-289] (Ac-[Lys(N3)][βAla]LTF[R8]EYWAQ[Cba][S5]GGGGGG-NH2; staple 6-13) has a documented logD of 2.58

In plain terms, CC(=O)N[C@@H](CCCCN=[N+]=[N-])C(=O)NCCC(=O)N[C@@H](CCC(=O)O)C(=O)N[C@H](C(=O)N[C@@H](Cc1ccccc1)C(=O)N[C@]1(C)CCCCCCC=CCCC[C@@](C)(C(=O)N[C@@H](CO)C(=O)N[C@@H](C)C(=O)N[C@@H](C)C(N)=O)NC(=O)[C@H](CC2CCC2)NC(=O)[C@H](CCC(N)=O)NC(=O)[C@H](C)NC(=O)[C@H](Cc2c[nH]c3ccccc23)NC(=O)[C@H](Cc2ccc(O)cc2)NC(=O)[C@H](CCC(=O)O)NC1=O)[C@@H](C)O has a documented logD of 2.47
